# melting point per record follows

COc1ccc2oc(C=O)cc2c1 ... 59 to 61 °C

Ask: Fill blank: measured melting point of the compound `Cn1c(S)nc2ccccc21` is ____.
Result: 190 to 194 °C

Ask: And what about the compound CC1CCCN(C(N)=S)C1 (stereo not drawn) ?
Result: 103 to 105 °C

Ask: And `CNC(=O)c1cc(S(=O)(=O)Cl)cn1C` ?
Result: 154 to 156 °C

Ask: Now the same for `COc1ccccc1-c1ccc(C=O)cc1`
Result: 49 to 51 °C

Ask: Please give the result for `Cc1nc(NC2CC2)sc1C(=O)O` too.
Result: 208 to 210 °C

Ask: How about O=C1CC(C(F)(F)F)NCCN1 (stereo not drawn) ?
Result: 136 to 138 °C

Ask: Also, CC(Br)C(=O)c1ccc(Cl)cc1 (stereo not drawn) please.
Result: 68 to 70 °C

----------
Measured melting point accompanies every entry in the list below.

Take a look at these entries with their results.
CC(Cl)C(=O)Nc1ccccc1Oc1ccccc1 (stereo not drawn) ... 64 to 66 °C
O=c1cc(-c2cccc(Cl)c2)[nH]c(=O)[nH]1 ... 248 to 250 °C
Cn1cc(C(=O)O)c(C(F)F)n1 ... 199 to 201 °C

Ask: Please report the recorded melting point for `CC(C)NS(=O)(=O)c1ccc(C(=O)O)cc1` .
Result: 225 to 227 °C

Ask: Same for Cc1cccc(C(C)C)c1NC(=O)C(C)Cl (stereo not drawn)
Result: 126 to 128 °C

Ask: Try the molecule O=C(O)C(Cc1ccccc1)N1C(=O)C=CC1=O (stereo not drawn)
Result: 193 to 195 °C

----------
# melting point per entry

Some entries whose results are on file:
CCOC(=O)c1c(C)noc1N ... 133 to 135 °C
O=C(O)c1nnc(S)[nH]c1=O ... 229 to 231 °C
Cc1nn(C(C)C)c(C)c1NC(=O)OCC(F)(F)F ... 185 to 187 °C
O=S(=O)(c1ccc(S)nc1)N1CCCC1 ... 179 to 181 °C

Ask: Could you share which melting point value was measured for CC(Sc1ncn[nH]1)C(=O)O (stereo not drawn) ?
Result: 173 to 175 °C

Ask: And `COC(=O)Cc1ccc(S(=O)(=O)Cl)s1` ?
Result: 59 to 61 °C

Ask: Ok, now `COc1ccc(C=O)cc1OCCCC#N`
Result: 72 to 74 °C

Ask: How about this compound: `O=C(O)/C=C/c1cccc(Cl)c1Cl`
Result: 233 to 235 °C

Ask: Queued: CC(C)(C)OC(=O)NC(Cc1ccccc1)C(O)C(F)(F)F (stereo not drawn)
Result: 149 to 151 °C

Ask: Please give the result for `Nc1ccn(CCN2CCNC2=O)n1` too.
Result: 118 to 120 °C

Ask: What would you report for `CN(C)c1nc(C=O)c(Cl)n1-c1ccc(Br)cc1` ?
Result: 115 to 117 °C

Ask: And the next one, `CC(C)(C)OC(=O)NC1CCN(Cc2cc(Cl)cc(Cl)c2)CC1` ?
Result: 145 to 147 °C

Ask: Proceed to `Nc1ncnc2c1ncn2CCCCl`
Result: 339 to 341 °C

----------
observed_property: melting point

Ask: Which melting point is listed for `CS(=O)(=O)c1ccc(OCCCl)cc1` ?
Result: 85 to 87 °C

Ask: Next entry: `COc1cc(Br)c(S(=O)(=O)Cl)cc1OC`
Result: 92 to 94 °C

Ask: Try this compound too: `COc1ccc(C(=O)Nc2ccc(C(=O)O)cc2)cc1OC`
Result: 259 to 261 °C

Ask: Try `COc1ccc(S(=O)(=O)N(C)c2ccc(O)cc2)cc1` next.
Result: 88 to 90 °C

Ask: What about `CN(C)S(=O)(=O)c1ccc2[nH]c(=O)oc2c1` ?
Result: 202 to 204 °C
